# Test system: Staphylococcus sp.
# ASSAY_NAME: in vitro antibacterial evaluation, MIC by broth dilution
# Type: cell-based
# CONDITION_PARAMETERS: strain GC 4551; broth dilution, 18 hours at 35° C.
READOUT_LABEL: MIC Coagulase Negative Staphylococcus (GC 4551)

The following compounds have reported results that may help.
COMPOUND	READING
CC(c1ccccc1)C1NC(=O)CNC(=O)C(CO)NC(=O)C(C(O)C2CN(Cc3ccccc3)C(=N)N2C2OC(CO)C(O)C(O)C2O)NC(=O)C(C(O)C2CNC(=N)N2)NC(=O)C(Cc2ccc(OC3OC(CO)C(OC4OC(CO)C(O)C(O)C4O)C(O)C3O)cc2)NC1=O (stereo not shown)	>128 µg/mL
CC(c1ccccc1)C1NC(=O)CNC(=O)C(CO)NC(=O)C(C(O)C2CN(Cc3ccc4ccccc4c3)C(=N)N2C2OC(CO)C(O)C(O)C2O)NC(=O)C(C(O)C2CNC(=N)N2)NC(=O)C(Cc2ccc(OC3OC(CO)C(OC4OC5COC6(OC5C(O)C4O)C4CC5CC(C4)CC6C5)C(O)C3O)cc2)NC1=O (stereo not shown)	8 µg/mL
CC(c1ccccc1)C1NC(=O)CNC(=O)C(CO)NC(=O)C(C(O)C2CNC(=N)N2C2OC(CO)C(O)C(O)C2O)NC(=O)C(C(O)C2CNC(=N)N2)NC(=O)C(Cc2ccc(O)c(NC(=O)c3ccccc3)c2)NC1=O (stereo not shown)	>64 µg/mL

Lookup: Can you look up the measured MIC Coagulase Negative Staphylococcus (GC 4551) of CC(c1ccccc1)C1NC(=O)CNC(=O)C(CO)NC(=O)C(C(O)C2CNC(=N)N2C2OC(CO)C(O)C(O)C2O)NC(=O)C(C(O)C2CNC(=N)N2)NC(=O)C(Cc2ccc(O)c(NC=O)c2)NC1=O (stereo not shown) for me?
Found: >128 µg/mL

###

# Test system: Enterococcus sp.
# ASSAY_NAME: in vitro antibacterial evaluation, MIC by broth dilution
# Format: cell-based
# CONDITION_PARAMETERS: broth dilution, inoculum 5×10^5 CFU/mL, 18 hours at 35° C.; strain GC 4556
READOUT_LABEL: MIC Enterococcus faecium (GC 4556) (µg/mL)
Unit µg/mL implied. Number only.

COMPOUND	TGT	MIC Enterococcus faecium (GC 4556) [µg/mL]
N=C1NCC(C(O)C2NC(=O)C(Cc3ccc(OC4OC(CO)C(OC5OC6COC(c7ccccc7)OC6C(O)C5O)C(O)C4O)cc3)NC(=O)C(CC3CCCCC3)NC(=O)CNC(=O)C(CO)NC(=O)C(C(O)C3CNC(=N)N3C3OC(CO)C(O)C(O)C3O)NC2=O)N1 (centres unmarked)	Enterococcus sp.	4

The record that follows has no MIC Enterococcus faecium (GC 4556) shown yet.
Lookup: Can you look up the measured MIC Enterococcus faecium (GC 4556) of CC(c1ccccc1)C1NC(=O)CNC(=O)C(CO)NC(=O)C(C(O)C2CNC(=N)N2C2OC(CO)C(O)C(O)C2O)NC(=O)C(C(O)C2CNC(=N)N2)NC(=O)C(Cc2ccc(OC3OC(CO)C(OC4OC5COC6(CC7CCC6(C)C7(C)C)OC5C(O)C4O)C(O)C3O)cc2)NC1=O (centres unmarked) [Example 214] for me?
Found: 2

###

# Tested on: Enterococcus sp.
# ASSAY_NAME: in vitro antibacterial evaluation, MIC by broth dilution
# Format: cell-based
# CONDITION_PARAMETERS: broth dilution, 18 hours at 35° C.; strain GC 6189
# Excerpt: Methods for in vitro Antibacterial Evaluation (Table 1) […]
READOUT_LABEL: MIC Enterococcus faecalis (GC 6189) (µg/mL)
Unit µg/mL implied. Number only.

Lookup: Can you look up the measured MIC Enterococcus faecalis (GC 6189) of CC(c1ccccc1)C1NC(=O)CNC(=O)C(CO)NC(=O)C(C(O)C2CNC(=N)N2C2OC(CO)C(O)C(O)C2O)NC(=O)C(C(O)C2CNC(=N)N2)NC(=O)C(Cc2ccc(OC3OC(CO)C(OC4OC5COC(c6ccsc6)OC5C(O)C4O)C(O)C3O)cc2)NC1=O (centres unmarked) [Example 133] for me?
Found: 4

Recorded values, source patent US6914045B2.
